System: EGFR (human), P00533 [746-750 del]
Sequence (P00533 whole entry, looked up, stated change not applied): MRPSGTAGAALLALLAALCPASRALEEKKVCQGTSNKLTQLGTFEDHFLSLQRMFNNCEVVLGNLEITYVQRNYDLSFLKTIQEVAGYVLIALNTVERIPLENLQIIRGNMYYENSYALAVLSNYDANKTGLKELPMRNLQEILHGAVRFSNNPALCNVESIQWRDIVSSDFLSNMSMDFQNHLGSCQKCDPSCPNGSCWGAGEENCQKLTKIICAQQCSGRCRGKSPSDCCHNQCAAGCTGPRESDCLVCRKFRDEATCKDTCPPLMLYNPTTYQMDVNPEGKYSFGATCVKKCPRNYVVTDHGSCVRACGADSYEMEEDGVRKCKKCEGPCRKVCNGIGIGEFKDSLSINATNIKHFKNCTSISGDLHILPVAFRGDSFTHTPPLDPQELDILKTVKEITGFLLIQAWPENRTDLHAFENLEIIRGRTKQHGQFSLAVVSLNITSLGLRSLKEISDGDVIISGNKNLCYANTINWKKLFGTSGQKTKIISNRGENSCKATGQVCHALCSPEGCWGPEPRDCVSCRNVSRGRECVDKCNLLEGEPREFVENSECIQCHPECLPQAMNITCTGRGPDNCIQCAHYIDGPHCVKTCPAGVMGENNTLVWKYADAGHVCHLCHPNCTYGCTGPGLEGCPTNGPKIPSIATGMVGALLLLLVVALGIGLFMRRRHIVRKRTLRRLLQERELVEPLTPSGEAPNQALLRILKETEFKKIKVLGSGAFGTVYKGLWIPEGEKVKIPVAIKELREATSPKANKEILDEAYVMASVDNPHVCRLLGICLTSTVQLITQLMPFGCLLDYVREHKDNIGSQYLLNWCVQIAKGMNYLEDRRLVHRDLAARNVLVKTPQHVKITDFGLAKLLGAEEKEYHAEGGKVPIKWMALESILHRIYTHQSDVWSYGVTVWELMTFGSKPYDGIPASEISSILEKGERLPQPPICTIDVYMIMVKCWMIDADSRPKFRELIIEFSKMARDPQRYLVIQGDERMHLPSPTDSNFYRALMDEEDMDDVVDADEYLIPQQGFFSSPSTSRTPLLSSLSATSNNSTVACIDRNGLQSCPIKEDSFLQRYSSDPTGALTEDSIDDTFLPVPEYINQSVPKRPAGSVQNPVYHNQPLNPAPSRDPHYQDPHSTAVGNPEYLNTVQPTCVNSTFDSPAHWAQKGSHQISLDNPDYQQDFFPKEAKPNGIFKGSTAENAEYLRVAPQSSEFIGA
Assay: KINOMEscan competition binding
Conditions: compound 10.0 µM
metric.name: kinase still bound, per cent of control (%)
Answers are plain numbers, in %.

For EGFR (human), P00533 [746-750 del], give the measured kinase still bound, per cent of control of the entry `CN(C)C/C=C/C(=O)Nc1ccc(C(=O)Nc2cccc(Nc3nccc(-c4cccnc4)n3)c2)cc1` 100

System EGFR (human), P00533 [746-750 del]. Read-out kinase still bound, per cent of control. Item `CCOc1cc(N2CCC(O)CC2)ccc1Nc1ncc2c(n1)N(C)c1ccccc1C(=O)N2C` . Report value. 100

System EGFR (human), P00533 [746-750 del]. Read-out kinase still bound, per cent of control. Item `N#Cc1cc(-c2ccnc(Nc3ccc(-n4cnc(-c5cccnc5)n4)cc3)n2)cc(N2CCOCC2)c1` . Report value. 67

Retrieve kinase still bound, per cent of control on EGFR (human), P00533 [746-750 del]; query `COc1cc(N2CCC(C(N)=O)CC2)ccc1Nc1nc(N)c(Cl)c(Nc2ccccc2S(=O)(=O)C(C)C)n1` 0

Report value only: kinase still bound, per cent of control, EGFR (human), P00533 [746-750 del], `O=C1Nc2ccc(I)cc2/C1=C/c1cc(Br)c(O)c(Br)c1` 36

Batch: kinase still bound, per cent of control for all items listed.
1. C=CC(=O)Nc1ccc(CN(C(=O)Nc2c(Cl)c(OC)cc(OC)c2Cl)c2cc(Nc3ccc(N4CCN(C)CC4)cc3)ncn2)cc1
2. Cc1ccc2nc(NCCN)c3ncc(C)n3c2c1

0.6
100

Answer for every listed entry: what is its kinase still bound, per cent of control? The entries follow.
1. N#CCNC(=O)c1ccc(-c2ccnc(Nc3ccc(N4CCOCC4)cc3)n2)cc1
2. CNC(=O)Nc1ccc(-c2nc(N3CC4CCC(C3)O4)c3cnn(C4CCC5(CC4)OCCO5)c3n2)cc1

100
38
